Target: DNA topoisomerase 1 (Homo sapiens) (UniProt P11387)
Assay: Inhibition of human topoisomerase-1 assessed as inhibition of relaxation of supercoiled pBR322 plasmid DNA at 100 uM measured after 1 hr by ethidium bromide staining based agarose gel electrophoresis relative to control
Reported inhibition values are given for each entry in this list.
RECORDED_ENDPOINT: inhibition

molecule="CCOc1ccc2c(c1)Oc1cc(OC(=O)c3ccccc3[N+](=O)[O-])ccc1C21c2ccccc2C(=O)N1/N=C/c1ccccc1OC(=O)c1ccccc1[N+](=O)[O-] (stereo not given)" recorded_endpoint=inhibition reported_result=0%
molecule="CCOc1ccc2c(c1)Oc1cc(O)ccc1C21c2ccccc2C(=O)N1/N=C/c1ccc(O)cc1 (stereo not given)" recorded_endpoint=inhibition reported_result=36.5%
molecule="CCOc1ccc2c(c1)Oc1cc(O)ccc1C21c2ccccc2C(=O)N1/N=C/c1ccccc1[N+](=O)[O-] (stereo not given)" recorded_endpoint=inhibition reported_result=35.6%
molecule="CCOc1ccc2c(c1)Oc1cc(OC(=O)c3ccccc3OC)ccc1C21c2ccccc2C(=O)N1/N=C/c1ccc(Cl)cc1 (stereo not given)" recorded_endpoint=inhibition reported_result=4.2%
molecule="CCOc1ccc2c(c1)Oc1cc(OC(=O)c3ccccc3)ccc1C21c2ccccc2C(=O)N1/N=C/c1ccccc1OC(=O)c1ccccc1 (stereo not given)" recorded_endpoint=inhibition reported_result=73.2%
molecule="CCOc1ccc2c(c1)Oc1cc(OC(=O)c3ccccc3[N+](=O)[O-])ccc1C21c2ccccc2C(=O)N1/N=C/c1ccc(OC(=O)c2ccccc2[N+](=O)[O-])cc1 (stereo not given)" recorded_endpoint=inhibition reported_result=22.7%
molecule="CCOc1ccc2c(c1)Oc1cc(O)ccc1C21c2ccccc2C(=O)N1/N=C/c1cccc(O)c1 (stereo not given)" recorded_endpoint=inhibition reported_result=0%
molecule="CCOc1ccc2c(c1)Oc1cc(OC(=O)c3ccccc3OC)ccc1C21c2ccccc2C(=O)N1/N=C/c1cccc(OC(=O)c2ccccc2OC)c1 (stereo not given)" recorded_endpoint=inhibition reported_result=0%
molecule="CCOc1ccc2c(c1)Oc1cc(O)ccc1C21c2ccccc2C(=O)N1/N=C/c1ccccc1OC (stereo not given)" recorded_endpoint=inhibition reported_result=28.1%
molecule="CCOc1ccc2c(c1)Oc1cc(OC(=O)c3ccccc3[N+](=O)[O-])ccc1C21c2ccccc2C(=O)N1/N=C/c1ccc(OC)cc1 (stereo not given)" recorded_endpoint=inhibition reported_result=54.6%

###

Biological target: DNA topoisomerase 1 (Homo sapiens) (UniProt P11387)
Sequence (whole entry): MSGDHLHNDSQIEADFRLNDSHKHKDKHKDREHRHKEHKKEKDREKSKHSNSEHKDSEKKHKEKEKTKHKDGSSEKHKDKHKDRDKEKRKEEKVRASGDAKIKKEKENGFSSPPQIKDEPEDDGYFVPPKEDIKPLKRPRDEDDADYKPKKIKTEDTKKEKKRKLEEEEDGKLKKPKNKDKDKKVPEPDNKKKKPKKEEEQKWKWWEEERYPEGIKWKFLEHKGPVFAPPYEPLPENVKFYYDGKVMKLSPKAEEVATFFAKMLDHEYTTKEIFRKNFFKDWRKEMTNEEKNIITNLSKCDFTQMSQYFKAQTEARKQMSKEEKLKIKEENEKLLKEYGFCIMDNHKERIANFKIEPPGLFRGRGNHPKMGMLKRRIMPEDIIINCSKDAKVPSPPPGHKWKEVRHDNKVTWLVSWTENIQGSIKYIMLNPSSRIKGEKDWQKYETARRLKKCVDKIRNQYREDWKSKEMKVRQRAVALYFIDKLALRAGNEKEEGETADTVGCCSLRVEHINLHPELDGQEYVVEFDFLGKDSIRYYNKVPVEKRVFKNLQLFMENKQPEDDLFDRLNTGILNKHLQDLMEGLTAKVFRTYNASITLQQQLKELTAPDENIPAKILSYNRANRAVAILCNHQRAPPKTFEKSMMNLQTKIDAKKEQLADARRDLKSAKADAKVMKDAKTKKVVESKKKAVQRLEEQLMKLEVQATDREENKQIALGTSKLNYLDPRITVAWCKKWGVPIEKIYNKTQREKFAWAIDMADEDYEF
Experiment: Inhibition of human topoisomerase-1 assessed as inhibition of relaxation of supercoiled pBR322 plasmid DNA at 100 uM measured after 1 hr by ethidium bromide staining based agarose gel electrophoresis relative to control
Reported inhibition values are given for each entry in this list.
RECORDED_ENDPOINT: inhibition (%)

compound="CCOc1ccc2c(c1)Oc1cc(OC(=O)c3ccccc3[N+](=O)[O-])ccc1C21c2ccccc2C(=O)N1/N=C/c1ccccc1OC (centres undefined)" reported_result=79.3
compound="CCOc1ccc2c(c1)Oc1cc(OC(=O)c3ccccc3)ccc1C21c2ccccc2C(=O)N1/N=C/c1ccc(Cl)cc1Cl (centres undefined)" reported_result=99.9
compound="CCOc1ccc2c(c1)Oc1cc(OC(=O)c3ccccc3[N+](=O)[O-])ccc1C21c2ccccc2C(=O)N1/N=C/c1ccc(OC)c(OC(=O)c2ccccc2[N+](=O)[O-])c1 (centres undefined)" reported_result=87.2
compound="CCOc1ccc2c(c1)Oc1cc(OC(=O)c3ccccc3OC)ccc1C21c2ccccc2C(=O)N1/N=C/c1ccc(OC)c(OC(=O)c2ccccc2OC)c1 (centres undefined)" reported_result=73.1
